MIC90: recorded values
Test system: Klebsiella oxytoca
Test: microbe, parasite or virus in culture
value.kind: MIC90 (µg/mL)

> print(dat)
                                   compound  measurement.qualifier  measurement
1  O=C(O)c1cn(C2CC2)c2cc(N3CCNCC3)c(F)cc2c1=O                      ≤        0.016
2  CN1CC(C#CC#Cc2cc3n(c2)C(=O)N(CC[C@](C)(C(=O)NO)S(C)(=O)=O)C3)C1                      =            4
3  C[C@@H](O)[C@H]1C(=O)N2C(C(=O)O)=C(SCCNC=N)C[C@H]12 [IMIPENEM ANHYDROUS]                      =          0.5
4  C[C@@](CCN1Cc2cc(C#CC#C[C@H]3C[C@@H]3[C@@H](O)CO)cn2C1=O)(C(=O)NO)S(C)(=O)=O                      =            4
